// pEC50 lookup, one value per entry
# Tested on: UniProt:O43614
# Sequence (O43614 1-444): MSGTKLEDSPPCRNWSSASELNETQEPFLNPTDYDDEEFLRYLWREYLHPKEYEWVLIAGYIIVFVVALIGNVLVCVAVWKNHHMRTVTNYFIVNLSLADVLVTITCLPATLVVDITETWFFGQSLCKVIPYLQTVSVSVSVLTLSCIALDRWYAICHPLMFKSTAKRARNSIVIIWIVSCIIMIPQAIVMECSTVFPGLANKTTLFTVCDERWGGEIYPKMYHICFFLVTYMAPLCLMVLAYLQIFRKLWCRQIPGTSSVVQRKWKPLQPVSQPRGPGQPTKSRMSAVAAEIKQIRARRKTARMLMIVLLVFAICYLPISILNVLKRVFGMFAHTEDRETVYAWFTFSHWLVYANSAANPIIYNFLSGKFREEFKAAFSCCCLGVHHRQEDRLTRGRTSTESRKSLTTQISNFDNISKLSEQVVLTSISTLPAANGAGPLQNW
# Assay protocol: IPOne (IP-1 accumulation) assay in CHO cells expressing human OX2R
# Recorded conditions: CHO cells expressing human OX2R; IP-One assay, 2 h incubation; four parameter logistic fit; read-out: OX2R Potency, EC50
pEC50: −log10 of the molar value.
Measure: pEC50

[
  {
    "Molecule": "CCN(C(=O)N[C@@H](CCC(F)(F)F)C(F)(F)F)C(c1cc(-c2cn3ccnc3c(OC)n2)c(OC)c(C)n1)C(F)(F)F (stereo partly shown)",
    "Measure": "pEC50",
    "Numeric readout": 8.04
  },
  {
    "Molecule": "CCN(C(=O)NC(C)C(F)F)[C@@H](c1cc(-c2cn3ccnc3c(OC)n2)c(OC)cn1)C(F)(F)F (stereo partly shown)",
    "Measure": "pEC50",
    "Numeric readout": 7.79
  },
  {
    "Molecule": "CCNC(=O)N(CC)[C@H](C)c1cccc(-c2cc(OC)c3nccn3c2)c1",
    "Measure": "pEC50",
    "Numeric readout": 6.75
  },
  {
    "Molecule": "CCN(C(=O)N[C@@H](CCC(F)(F)F)C(F)(F)F)[C@H](C)c1cccc(-c2cc(OC)c3nc(O)cn3c2)c1",
    "Measure": "pEC50",
    "Numeric readout": 6.84
  }
]

###

# Tested on: human OX2R (Homo sapiens, UniProt O43614)
# Construct: expressed in transfected cells; host or cells: CHO (Chinese hamster ovary) cells grown under G418 selection
# Assay protocol: IPOne (IP-1 accumulation) assay in CHO cells expressing human OX2R
# Assay type: cell-based
# Recorded conditions: CHO cells expressing human OX2R; IP-One assay, 2 h incubation; four parameter logistic fit; read-out: OX2R Potency, EC50
pEC50: −log10 of the molar value.
Tick 1 if pEC50 is 8 or greater. Tick 0 if pEC50 is less than 8.

[
  {
    "Compound": "CCN(C(=O)N[C@@H](CCC(F)(F)F)C(F)(F)F)[C@@H](c1cccc(-c2cn3ccnc3c(OC)n2)c1)C(F)(F)F [Example 2-22]",
    "Label": 1
  },
  {
    "Compound": "CCN(C(=O)N[C@@H](CCS(C)(=O)=O)C(F)(F)F)[C@@H](c1cc(-c2cn3ccnc3c(OC)n2)c(OC)cn1)C(F)(F)F [Example 2-36]",
    "Label": 1
  },
  {
    "Compound": "CC[C@H](CCC(F)(F)F)NC(=O)N(C)[C@H](C)c1cccc(-c2cn3ccnc3c(OC)n2)c1 [Example 2-58]",
    "Label": 0
  },
  {
    "Compound": "CCN(C(=O)NC(CC(C)C(F)(F)F)C(F)(F)F)[C@H](C)c1cccc(-c2cn3ccnc3c(OC)n2)c1 (some centres unmarked) [Example 2-2]",
    "Label": 1
  },
  {
    "Compound": "CCN(C(=O)N[C@@H](CCC(F)(F)F)C(F)(F)F)[C@H](C)c1cccc(-c2cc(OC)c3ncc(Cl)n3c2Cl)c1 [Example 8-14]",
    "Label": 0
  },
  {
    "Compound": "CC[C@H](CCC(F)(F)F)NC(=O)N(C(C)C)[C@H](C)c1cccc(-c2cn3ccnc3c(OC)n2)c1 [Example 2-60]",
    "Label": 0
  },
  {
    "Compound": "CCN(C(=O)NC(CCC(F)(F)F)C1CCO1)[C@@H](c1cc(-c2cn3ccnc3c(OC)n2)c(OC)cn1)C(F)(F)F (some centres unmarked) [Example 2-45]",
    "Label": 1
  },
  {
    "Compound": "CCN(C(=O)N[C@@H](CCC(F)(F)F)C(F)(F)F)C(c1ncc(OC)c(-c2cn3ccnc3c(OC)n2)n1)C(F)(F)F (some centres unmarked) [Example 10-4]",
    "Label": 1
  },
  {
    "Compound": "CCN(C(=O)NC(CCC1CC1)C(F)(F)F)[C@H](C)c1cccc(-c2cn3ccnc3c(OC)n2)c1 (some centres unmarked) [Example 3-6]",
    "Label": 1
  },
  {
    "Compound": "CC[C@H](CCC(F)(F)F)NC(=O)N(CC)[C@H](C)c1ccc(Br)c(-c2ccc3nccn3c2)c1 [Example 11-3]",
    "Label": 0
  },
  {
    "Compound": "CCN(C(=O)N[C@@H](COC1CC1)C(F)(F)F)[C@@H](c1cc(-c2cn3cc(C)nc3c(OC)n2)c(OC)cn1)C(F)(F)F [Example 2-18]",
    "Label": 0
  },
  {
    "Compound": "CC[C@H](CCC(F)(F)F)NC(=O)N(CC)Cc1ccc(OC)c(-c2cc(OC)c3nccn3c2)c1 [Example 1-8]",
    "Label": 1
  },
  {
    "Compound": "CCN(C(=O)N[C@@H](CCC(F)(F)F)C(F)(F)F)[C@H](C)c1cc(-c2cn3ccnc3c(OC)n2)c(OC)cn1 [Example 12-1]",
    "Label": 1
  },
  {
    "Compound": "CCN(C(=O)NC(CC#N)C(F)(F)F)[C@H](C)c1cccc(-c2cn3ccnc3c(OC)n2)c1 (some centres unmarked) [Example 1-14]",
    "Label": 0
  },
  {
    "Compound": "CCN(C(=O)N[C@@H](CCC(F)(F)F)C(F)(F)F)[C@@H](c1cc(-c2cc(OC)c3ncn(C)c3c2)c(OC)cn1)C(F)(F)F [Example 9-7]",
    "Label": 0
  },
  {
    "Compound": "CCN(C(=O)NC(C)C)[C@@H](c1cc(-c2cn3ccnc3c(OC)n2)c(OC)cn1)C(F)(F)F [Example 2-29]",
    "Label": 0
  },
  {
    "Compound": "CCN(C(=O)NC1CC1(F)F)[C@@H](c1cc(-c2cn3ccnc3c(OC)n2)c(OC)cn1)C(F)(F)F (some centres unmarked) [Example 2-42]",
    "Label": 0
  },
  {
    "Compound": "CCCC(C#N)NC(=O)N(CC)[C@H](C)c1cccc(-c2cn3ccnc3c(OC)n2)c1 (some centres unmarked) [Example 2-37]",
    "Label": 0
  },
  {
    "Compound": "C#CC(NC(=O)N(CC)[C@@H](c1cc(-c2cn3ccnc3c(OC)n2)c(OC)cn1)C(F)(F)F)C(F)(F)F (some centres unmarked) [Example 5-3]",
    "Label": 0
  },
  {
    "Compound": "CCN(C(=O)N[C@@H](CCC(F)(F)F)C(F)(F)F)[C@@H](c1cc(-c2cc(OC)n3nccc3n2)c(OC)cn1)C(F)(F)F [Example 9-8]",
    "Label": 0
  },
  {
    "Compound": "CCN(C(=O)N[C@@H](CCC(F)(F)F)C(F)(F)F)[C@H](C)c1cnc(O)c(-c2cc(OC)n3nccc3c2)c1 [Example 30]",
    "Label": 0
  }
]

###

# Tested on: human OX2R (Homo sapiens, UniProt O43614)
# Sequence (O43614 1-444): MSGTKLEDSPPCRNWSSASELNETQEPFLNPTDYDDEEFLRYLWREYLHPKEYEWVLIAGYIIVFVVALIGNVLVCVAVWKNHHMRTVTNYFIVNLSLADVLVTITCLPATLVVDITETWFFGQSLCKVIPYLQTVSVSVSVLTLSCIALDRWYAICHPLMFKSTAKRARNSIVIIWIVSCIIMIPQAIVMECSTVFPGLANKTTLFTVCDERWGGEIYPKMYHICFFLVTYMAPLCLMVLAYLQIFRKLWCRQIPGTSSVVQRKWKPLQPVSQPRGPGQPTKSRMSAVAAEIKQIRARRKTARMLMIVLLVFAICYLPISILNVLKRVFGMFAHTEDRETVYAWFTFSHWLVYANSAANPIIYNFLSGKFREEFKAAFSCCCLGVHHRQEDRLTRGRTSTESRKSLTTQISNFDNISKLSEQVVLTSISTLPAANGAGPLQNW
# Assay protocol: IPOne (IP-1 accumulation) assay in CHO cells expressing human OX2R
# Recorded conditions: CHO cells expressing human OX2R; IP-One assay, 2 h incubation; four parameter logistic fit; read-out: OX2R Potency, EC50
pEC50: −log10 of the molar value.

[
  {
    "Compound": "CCN(C(=O)N[C@]1(C)C[C@H]1C(F)(F)F)[C@@H](c1cc(-c2cn3ccnc3c(OC)n2)c(OC)cn1)C(F)(F)F",
    "pEC50": 7.45
  },
  {
    "Compound": "CCN(C(=O)NC(CCC(F)(F)F)C(C)(F)F)[C@H](C)c1cccc(-c2cn3ccnc3c(OC)n2)c1 (stereo partly drawn)",
    "pEC50": 6.89
  },
  {
    "Compound": "CCN(C(=O)N[C@@H](CCC(F)(F)F)C(F)(F)F)C(c1cc(-c2cn3ccnc3c(OC)n2)c2nccn2c1)C(F)(F)F (stereo partly drawn)",
    "pEC50": 8.06
  },
  {
    "Compound": "CCN(C(=O)NC(CC(F)(F)F)C1CC1)C(c1cc(-c2cn3ccnc3c(OC)n2)c(OC)cn1)C(F)(F)F (stereo not drawn)",
    "pEC50": 7.87
  },
  {
    "Compound": "CCN(C(=O)N[C@@H](CCC(F)(F)F)C(F)(F)F)[C@@H](c1cc(-c2cc(F)c3ncnn3c2)c(OC)cn1)C(F)(F)F",
    "pEC50": 6.22
  },
  {
    "Compound": "CCN(C(=O)N[C@@H](CCC(F)(F)F)C(F)(F)F)[C@H](C)c1cc(-c2cn3ccnc3c(OC)n2)c(OC)nn1",
    "pEC50": 9.10
  }
]
